- assay-target: T1, FX activation peptide 12-mer ENPFDLLDFNQT (human)
- T1 peptide: ENPFDLLDFNQT-biotin
- assay-explanation: peptide ELISA
Ends that are not written are not given here.
Hi! Could you tag entries with ELISA signal relative to background below 4 as Yes, and those at or above as No? Much appreciated.

# binder, category
rows = [
    ("Nb 730C03 (VHH, monovalent Nanobody; also called Nb 730003; not shown: C-terminal FLAG3 and HIS6 tag) VHH: EVQLVESGGGVVQPGGSLRLSCVASGFTFSDYAMSWVRQAPGKGLEWVSGITSGSGRTYYADSVKGRFTISRDNSKNTVYLQMNSLRPEDTALYYCAAAILRGYRKTYDYWGQGTLVTVSS", "No"),
    ("Nb 729C08 (VHH, monovalent Nanobody; also called Nb 729008; not shown: C-terminal FLAG3 and HIS6 tag) VHH: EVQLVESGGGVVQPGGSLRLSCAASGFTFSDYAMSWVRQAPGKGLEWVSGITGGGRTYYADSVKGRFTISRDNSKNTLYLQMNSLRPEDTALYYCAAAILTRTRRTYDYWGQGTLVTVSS", "No"),
    ("Nb 701B09 (VHH, monovalent Nanobody; also called Nb 701609; not shown: C-terminal FLAG3 and HIS6 tag) VHH: EVQLVESGGGVVQPGGSLRLSCAASGRTFSTYAMGWFRQAPGKEREFVAAISWSGSRTYYADSVKGRFTISRDNSKNTVYLQMNSLRPEDTALYYCAADATPANGELDYWGQGTLVTVSS", "Yes"),
    ("Nb 729A04 (VHH, monovalent Nanobody; not shown: C-terminal FLAG3 and HIS6 tag) VHH: EVQLVESGGGVVQPGGSLRLSCAASGFTFSDYAMSWVRQAPGKGLEWVSGITSGGGRTYYADSVKGRFTISRDNSKNTLYLQMNSLRPEDTALYYCAAVRTLGLRGSYDYWGQGTLVTVSS", "No"),
]

Here's the next entry for you.
# strict comparison: is reported ELISA signal relative to background < 4? input = Nb 501A02 (VHH, monovalent control Nanobody; also called control Nanobody; not shown: C-terminal FLAG3 and HIS6 tag) VHH: EVQLVESGGGLVQPGGSLRLSCAASGFTFSNYEMSWVRQAPGKGLEWVSDIGSGGGVSTYYADSVKGRFTISRDNAKNTLYLQMNSLKPEDTAMYYCARGWTYGSDGMDYWGKGTLVTVSS
Yes
